Tested on: Enterococcus sp.
measurement_protocol: in vitro antibacterial evaluation, MIC by broth dilution
Assay type: cell-based
experimental_setup: broth dilution, inoculum 5×10^5 CFU/mL, 18 hours at 35° C.; strain GC 2242
Excerpt: Methods for in vitro Antibacterial Evaluation (Table 1) […]
attribute_measured: MIC Enterococcus faecalis (GC 2242)

# compound, attribute_measured, measurement
measured = [
    ("CC(c1ccccc1)C1NC(=O)CNC(=O)C(CO)NC(=O)C(C(O)C2CNC(=N)N2C2OC(CO)C(O)C(O)C2O)NC(=O)C(C(O)C2CNC(=N)N2)NC(=O)C(Cc2ccc(OC3OC(CO)C(OC4OC5COC(c6ccccc6)OC5C(O)C4O)C(O)C3O)c(I)c2)NC1=O (centres unmarked)", "MIC Enterococcus faecalis (GC 2242)", ">64 µg/mL"),
    ("N=C1NCC(C(O)C2NC(=O)C(CC3CCC(OC4OC(CO)C(OC5OC6COC7(OC6C(O)C5O)C5CC6CC(C5)CC7C6)C(O)C4O)CC3)NC(=O)C(CC3CCCCC3)NC(=O)CNC(=O)C(CO)NC(=O)C(C(O)C3CNC(=N)N3C3OC(CO)C(O)C(O)C3O)NC2=O)N1 (single isomer, unassigned)", "MIC Enterococcus faecalis (GC 2242)", ">64 µg/mL"),
    ("CC(c1ccccc1)C1NC(=O)CNC(=O)C(CO)NC(=O)C(C(O)C2CNC(=N)N2C2OC(CO)C(O)C(O)C2O)NC(=O)C(C(O)C2CNC(=N)N2)NC(=O)C(Cc2ccc(OC3OC(CO)C(OC4OC(CO)C(O)C(O)C4OCc4ccc(OCc5ccccc5)cc4)C(O)C3O)cc2)NC1=O (centres unmarked) [Example 231b]", "MIC Enterococcus faecalis (GC 2242)", "8 to 64 µg/mL"),
    ("CC(c1ccccc1)C1NC(=O)CNC(=O)C(CO)NC(=O)C(C(O)C2CNC(=N)N2C2OC(CO)C(O)C3OC(C)(C)OC32)NC(=O)C(C(O)C2CNC(=N)N2)NC(=O)C(Cc2ccc(OC3OC(CO)C(OC4OC(CO)C(O)C(O)C4O)C4OC(C)(C)OC34)cc2)NC1=O (centres unmarked)", "MIC Enterococcus faecalis (GC 2242)", ">128 µg/mL"),
    ("CC(c1ccccc1)C1NC(=O)CNC(=O)C(CO)NC(=O)C(C(O)C2CNC(=N)N2C2OC(CO)C(O)C(O)C2O)NC(=O)C(C(O)C2CNC(=N)N2)NC(=O)C(Cc2ccc(OC3OC(CO)C(OC4OC(CO)C(OCc5ccc(OCc6ccccc6)cc5)C(O)C4O)C(O)C3O)cc2)NC1=O (centres unmarked) [Example 231a]", "MIC Enterococcus faecalis (GC 2242)", "2 to 4 µg/mL"),
]

---

System: Staphylococcus sp.
measurement_protocol: in vitro antibacterial evaluation, MIC by broth dilution
Format: cell-based
experimental_setup: broth dilution, 18 hours at 35° C.; strain GC 4551
Numbered stars: 1 amine (or outer) side, 2 acyl side, 3 side chain; on linkers, the order of the positions; unused ones are H or OH. Square brackets hold non-standard residues; d marks the D form. Peptide text beside a SMILES is read from it. * marks the point of attachment. ξ: configuration not given here. X1 = N=C1NCC(C(O)C(N[*:1])C(=O)[*:2])N1C1OC(CO)C(O)C(O)C1O; ξEnduracididine(βξ-OH,4'ξ) = N=C1NCC(C(O)C(N)C(=O)O)N1; X2 = OCC1OC(OC2C(CO)OC(*)C(O)C2O)C(O)C(O)C1O; Cha = N[CH](CC1CCCCC1)C(=O)O
attribute_measured: MIC Coagulase Negative Staphylococcus (GC 4551)

# compound, measurement
data = [
    ("CC(c1ccccc1)C1NC(=O)CNC(=O)C(CO)NC(=O)C(C(O)C2CNC(=N)N2C2OC(CO)C(O)C(O)C2O)NC(=O)C(C(O)C2CNC(=N)N2)NC(=O)C(Cc2ccc(OC3OC(CO)C(OC4OC5COC(Cc6ccc(Br)cc6)OC5C(O)C4O)C(O)C3O)cc2)NC1=O (centres unmarked)", "<0.5 to 1 µg/mL"),
    ("N=C1NCC(C(O)C2NC(=O)C(Cc3ccc(O)cc3)NC(=O)C(Cc3ccccc3)NC(=O)CNC(=O)C(CO)NC(=O)C(C(O)C3CNC(=N)N3C3OC(CO)C(O)C(O)C3O)NC2=O)N1 (stereo not drawn) [Example 279a] (cyclo(GFY[ξEnduracididine(βξ-OH,4'ξ)][X1]S); configuration not given here)", ">64 µg/mL"),
    ("CC(C)CC(=O)OC1C(OC2C(CO)OC(Oc3ccc(CC4NC(=O)C(C(C)c5cccc(F)c5)NC(=O)CNC(=O)C(CO)NC(=O)C(C(O)C5CNC(=N)N5C5OC(CO)C(O)C(O)C5O)NC(=O)C(C(O)C5CNC(=N)N5)NC4=O)cc3)C(O)C2O)OC(CO)C(O)C1O (centres unmarked) [Example 264a]", "16 µg/mL"),
    ("CC(c1ccccc1)C1NC(=O)CNC(=O)C(CO)NC(=O)C(CC2CNC(=N)N2C2OC(CO)C(O)C(O)C2O)NC(=O)C(CC2CNC(=N)N2)NC(=O)C(Cc2ccc(OC3OC(CO)C(OC4OC(CO)C(O)C(OCc5ccc(OCc6ccccc6)cc5)C4O)C(O)C3O)cc2)NC1=O (centres unmarked) [Example 246b]", "64 µg/mL"),
    ("N=C1NCC(C(O)C2NC(=O)C(Cc3ccc(OC4OC(CO)C(OC5OC(CO)C(O)C(O)C5O)C(O)C4O)cc3)NC(=O)C(CC3CCCCC3)NC(=O)CNC(=O)C(CO)NC(=O)C(C(O)C3CNC(=N)N3C3OC(CO)C(O)C(O)C3O)NC2=O)N1 (stereo not drawn) [Example 263] (cyclo(G[Cha]Y(X2)[ξEnduracididine(βξ-OH,4'ξ)][X1]S); configuration not given here)", "64 µg/mL"),
]
